Just for reference, paper PMC13147315 is where these values come from.

Measured pKd of individual entries
- MEASUREMENT TARGET: N_WT (nucleocapsid, Wuhan) (SARS-CoV-2 (Wuhan), UniProt P0DTC9 1-419)
- ASSAY NAME: MST
- CONDITION SET: protein: recombinant; tags: 6xHis; chain copies: 2; label: Cy5; blunt
Remember, pKd is on a log scale: it is -log10 of the molar concentration.

dsRNA20 (dsRNA) RNA 1: UUCGUCCGGGUGUGACCGAAAGGUAA RNA 2: UUACCUUUCGGUCACACCCGGACGAA = 6.40

Lab note: next binder to report on.
Task: Give the reported value of pKd for this record: dsRNA22 (dsRNA) RNA 1: CAUAAUAAGAGGCUGGAUUUUUGGUA RNA 2: UACCAAAAAUCCAGCCUCUUAUUAUG
Result: 6.46
